molecular target: DNA ligase 1 (LIG1) (UniProt P18858 1-919); assay: BLI; LIG1 buffer; BLI (Octet QKe), 20 °C: polβ, APE1, LIGIIIα in 20 mM Hepes pH 7.4, 200 mM NaCl, 0.5% BSA, 0.05% Tween 20; LIG1 in 50 mM Tris-HCl pH 7.5, 100 mM KCl, 1 mM DTT; no Mg2+ listed; settings: protein: recombinant; tags: His; label: 3'-biotin on strand 2; nicked duplex; strands 1 and 2 pair with strand 3; blunt outer ends
recorded.endpoint: Kd (nM)
Numeric answer only, unit nM assumed.

Complete the entry with Kd for nick DNA (3'-dG:C) (dsDNA, 5'-phosphate on strand 2 at the nick; 3'-OH on strand 1) DNA 1: CATGGGCGGCATGAACCG DNA 2: GAGGCCCATCCTCACC DNA 3: GGTGAGGATGGGCCTCCGGTTCATGCCGCCCATG 3

# credit: paper PMC11176775
